target: Human FXa (Homo sapiens); construct: Human FXa [Enzyme research Laboratories (USA)] enzyme; purchased Enzyme Research Laboratories (USA); assay: Intravenous administration test in mouse, human FXa inhibitory activity in serum; type: in vivo; conditions: ICR mice, i.v., 1 mg/kg, 10 minutes, mean ± S.D., n = 3
Sequence (P00742 235-488 limits assumed): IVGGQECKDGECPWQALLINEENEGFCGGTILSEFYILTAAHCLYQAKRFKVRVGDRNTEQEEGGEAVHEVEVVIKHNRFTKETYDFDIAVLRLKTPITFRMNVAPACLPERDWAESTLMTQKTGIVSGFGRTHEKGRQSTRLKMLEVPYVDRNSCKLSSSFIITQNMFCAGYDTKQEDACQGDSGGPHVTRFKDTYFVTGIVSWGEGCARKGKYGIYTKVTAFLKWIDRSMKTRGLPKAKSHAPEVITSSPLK
Sequence (P00742 41-179 limits assumed): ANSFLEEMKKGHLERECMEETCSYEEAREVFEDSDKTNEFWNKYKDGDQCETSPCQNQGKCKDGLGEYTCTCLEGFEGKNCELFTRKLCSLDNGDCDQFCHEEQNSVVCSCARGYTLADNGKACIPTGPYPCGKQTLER
Structures can show the parent of a compound that is named as a salt.
measured_parameter: inhibition at 1 mg/kg (%)

Problem: Return reported inhibition at 1 mg/kg; argument: CCN=C(N)N1CCC(Oc2ccc(N(Cc3nc4cc(C(=N)N)ccc4n3CC(=O)NC3CCCCC3)C(=O)c3ccc(C(=O)O)cc3)cc2)CC1 [Example 112, Dihydrochloride]
Solution: 49

Problem: Please do the same for "CC(=N)N1CCC(Oc2ccc(N(Cc3nc4cc(C(=N)N)ccc4n3CC(=O)NC3CCCCC3)C(=O)c3ccc(C(=O)O)cc3)cc2)CC1" as well.
Solution: 55

Problem: Another compound: CC(=N)N1CC[C@H](Oc2ccc([C@H](Cc3ccc4ccc(C(=N)N)cc4c3)C(=O)O)cc2)C1 [Comparative Example 1, reference compound]
Solution: 43

Problem: Another compound to check: CC(=N)N1CCC(Oc2ccc(N(Cc3nc4cc(C(=N)N)ccc4n3CC(=O)N[C@@H](C)c3ccccc3)C(=O)c3ccc(C(=O)O)cc3)cc2)CC1 [Example 17, Dihydrochloride]
Solution: 70

Problem: Now the same for CC(=N)N1CCC(Oc2ccc(N(Cc3nc4cc(C(=N)N)ccc4n3CC(=O)Nc3ccc(OCc4ccccc4)cc3)C(=O)c3ccc(C(=O)O)cc3)cc2)CC1 [Example 18, Dihydrochloride]
Solution: 73

Problem: // same read-out, input: COC(=O)c1ccc(C(=O)N(Cc2nc3cc(C(=N)N)ccc3n2CC(=O)NC2CCCCC2)c2ccc(OC3CCN(C(=N)N)CC3)cc2)cc1 [Example 64, Dihydrochloride]
Solution: 55

Problem: Follow-up entry: N=C(N)N1CCc2ccc(OCC3(C(=O)O)CCN(c4ccncc4)CC3)cc2C1 [Example 7, Dihydrochloride]
Solution: 64

Problem: Now the same for N=C(N)c1ccc2c(c1)nc(CN(C(=O)c1ccc(C(=O)O)cc1)c1ccc(OC3CCN(C(=N)N)CC3)cc1)n2CC(=O)NC1CCCCC1 [Example 65, Dihydrochloride]
Solution: 55

###

molecular target: Human FXa (Homo sapiens); construct: Human FXa [Enzyme research Laboratories (USA)] enzyme; purchased Enzyme Research Laboratories (USA); experiment: Determination of anti-factor Xa (FXa) activity, synthetic substrate S-2222; type: biochemical; settings: S-2222, 37° C., pH 8.4, read-out: Experimental Example 1: anti-FXa activity, IC50
Sequence (P00742 235-488 limits assumed): as the sequence (P00742 235-488 limits assumed) above
Sequence (P00742 41-179 partner limits assumed): as the sequence (P00742 41-179 limits assumed) above
pIC50: −log10 of the molar value. Counter-ions that a name gives are not always drawn.
measured_parameter: pIC50

Problem: I am curious: what pIC50 value has been reported for CCOC(=O)C1(CCOc2ccc3c(c2)CN(C(=N)N)CC3)CCN(c2ccncc2)CC1 [Example 15, Dihydrochloride] ?
Solution: 6.70

Problem: For N=C(N)N1CCc2ccc(OCCC3(C(=O)O)CCN(c4ccncc4)CC3)cc2C1 [Example 16, Dihydrochloride] then?
Solution: 6.70

Problem: And then N=C(N)N1CCc2ccc(OCC3CCN(S(=O)(=O)NCc4ccccc4)CC3)cc2C1 [Example 83, hydrochloride] , what is it?
Solution: 6.15

Problem: Next entry: N=C(N)c1ccc2c(c1)nc(CN(C(=O)c1ccc(C(=O)O)cc1)c1ccc(OC3CCN(C(=N)NCc4ccccc4)CC3)cc1)n2CC(=O)NC1CCCCC1 [Example 110, Dihydrochloride]
Solution: 7.10

a. CC(=N)N1CCC(Oc2ccc(N(Cc3nc4cc(C(=N)N)ccc4n3CC(=O)Nc3ccc(OCc4ccccc4)cc3)C(=O)c3ccc(C(=O)O)cc3)cc2)CC1 [Example 18, Dihydrochloride]
b. CCOC(=O)C1(COc2ccc3c(c2)CN(C(=N)N)CC3)CCN(c2ccc(C(=N)N)cc2)CC1 [Example 98, Dihydrochloride]
Problem: Kindly compare a with b and tell me which has the lower pIC50 figure. Refer to your chosen entry by its label in the reply.
Solution: b
(b: 6.40, a: 8.00)
